Would you mind telling me the reported EC50 of each entry?
System: IL-6 (THP-1 cells)
assay_details: IL-6 inhibition in LPS-stimulated THP-1 monocytes (HTRF)
Assay type: cell-based
assay_context: Homo sapiens, 500 ng/mL LPS, IL-6 HTRF, Table 6
Answer in µM, number only, no unit symbol.

Exam item: Sample CN(C)Cc1cncc(-c2ccc3[nH]nc(-c4nc5c(N6CCCCC6)cccc5[nH]4)c3n2)c1 — what was its EC50?
Marked response: 4.94

Exam item: Sample CN1CCN(c2cccc3[nH]c(-c4n[nH]c5ccc(-c6cncnc6)nc45)nc23)CC1 — what was its EC50?
Marked response: 2.23

Exam item: Sample Cc1ccc(-c2cccc3[nH]c(-c4n[nH]c5ccc(-c6cncc(NC(=O)C7CCCC7)c6)nc45)nc23)s1 — what was its EC50?
Marked response: 0.0983

====

System: IL-6 (THP-1 cells)
assay_details: IL-6 inhibition in LPS-stimulated THP-1 monocytes (HTRF)
Format: cell-based
assay_context: Homo sapiens, 500 ng/mL LPS, IL-6 HTRF, Table 6
Method: Human Monocyte Cell Culture: Human monocyte cell line (THP-1 cells; Catalog # TIB-202, ATCC, Manassas, Va.) were cultured in Roswell Park Memorial Institute (RPMI) 1640 Medium (Catalog #21870-100, Buffalo, N.Y.) with 1% L-glutamine, 1% HEPES, 1% Sodium Pyruvate, 2% Sodium Bicarbonate supplemented with 100 units/mL penicillin, 50 μg/mL streptomycin, 2-mercaptoethanol (0.05 mM) [basal medium] and 10% fetal bovine serum (Catalog #16140089, Life Technologies, Carlsbad, Calif.) at 37° C. and 5% CO2. […]
Would you mind telling me the reported pEC50 of each entry?
Interpret pEC50 as the negative base-10 log of the concentration measured in mol/L.

Exam item: Sample CN(C)CCOc1cncc(-c2ccc3[nH]nc(-c4nc5c(-c6cccs6)cccc5[nH]4)c3n2)c1 — what was its pEC50?
Marked response: 5.23

Exam item: Sample O=C(Nc1cncc(-c2ccc3[nH]nc(-c4nc5ccccc5[nH]4)c3n2)c1)C1CCCCC1 — what was its pEC50?
Marked response: 5.74

Exam item: Sample CN(C)CCOc1cncc(-c2ccc3[nH]nc(-c4nc5c(-c6cccc(F)c6)cccc5[nH]4)c3n2)c1 — what was its pEC50?
Marked response: 5.13

Exam item: Sample Cc1ccc(-c2cccc3[nH]c(-c4n[nH]c5ccc(C6=CCNCC6)nc45)nc23)s1 — what was its pEC50?
Marked response: 5.04

Exam item: Sample CCC(=O)Nc1cncc(-c2ccc3[nH]nc(-c4nc5c(-c6cccs6)cccc5[nH]4)c3n2)c1 — what was its pEC50?
Marked response: 5.68

Exam item: Sample c1ccc2[nH]c(-c3n[nH]c4ccc(-c5cncc(OC6CCNCC6)c5)nc34)nc2c1 — what was its pEC50?
Marked response: 5.86

Exam item: Sample O=C(Nc1cncc(-c2ccc3[nH]nc(-c4nc5c(-c6ccccc6F)cccc5[nH]4)c3n2)c1)C(F)(F)F — what was its pEC50?
Marked response: 7.29

Exam item: Sample CN1CCN(c2cccc3[nH]c(-c4n[nH]c5ccc(-c6cncc(N)c6)nc45)nc23)CC1 — what was its pEC50?
Marked response: 5.08

====

System: IL-6 (THP-1 cells)
assay_details: IL-6 inhibition in LPS-stimulated THP-1 monocytes (HTRF)
Type: cell-based
assay_context: Homo sapiens, 500 ng/mL LPS, IL-6 HTRF, Table 6
Procedure: Human Monocyte Cell Culture: Human monocyte cell line (THP-1 cells; Catalog # TIB-202, ATCC, Manassas, Va.) were cultured in Roswell Park Memorial Institute (RPMI) 1640 Medium (Catalog #21870-100, Buffalo, N.Y.) with 1% L-glutamine, 1% HEPES, 1% Sodium Pyruvate, 2% Sodium Bicarbonate supplemented with 100 units/mL penicillin, 50 μg/mL streptomycin, 2-mercaptoethanol (0.05 mM) [basal medium] and 10% fetal bovine serum (Catalog #16140089, Life Technologies, Carlsbad, Calif.) at 37° C. and 5% CO2. […]
observation_type: EC50 (µM)
Answer in µM, number only, no unit symbol.

Exam item: Provide value of EC50 for this record tested with IL-6 (THP-1 cells): COc1cccc(-c2cccc3[nH]c(-c4n[nH]c5ccc(-c6cncc(NC(=O)Cc7ccccc7)c6)nc45)nc23)c1
Marked response: 0.812

Exam item: Provide value of EC50 for this record tested with IL-6 (THP-1 cells): C1=C(c2ccc3[nH]nc(-c4nc5c(-c6ccc7c(c6)OCO7)cccc5[nH]4)c3n2)CCNC1
Marked response: 5.87

Exam item: Provide value of EC50 for this record tested with IL-6 (THP-1 cells): CS(=O)(=O)NCc1cc(F)cc(-c2cccc3[nH]c(-c4n[nH]c5ccc(-c6cncnc6)nc45)nc23)c1
Marked response: 3.71

Exam item: Provide value of EC50 for this record tested with IL-6 (THP-1 cells): CN1CCN(c2cccc3[nH]c(-c4n[nH]c5ccc(-c6cncc(NC(=O)C(F)(F)F)c6)nc45)nc23)CC1
Marked response: 7.09

Exam item: Provide value of EC50 for this record tested with IL-6 (THP-1 cells): CCNCc1cncc(-c2ccc3[nH]nc(-c4nc5c(-c6cc(F)cc(NCCN(C)C)c6)cccc5[nH]4)c3n2)c1
Marked response: 0.628

Exam item: Provide value of EC50 for this record tested with IL-6 (THP-1 cells): Fc1cccc(-c2cccc3[nH]c(-c4n[nH]c5ccc(-c6cncc(CN7CCC(F)(F)C7)c6)nc45)nc23)c1
Marked response: 5.18

Exam item: Provide value of EC50 for this record tested with IL-6 (THP-1 cells): FC1(F)CCN(Cc2cncc(-c3ccc4[nH]nc(-c5nc6c(-c7ccsc7)cccc6[nH]5)c4n3)c2)C1
Marked response: 4.48

Reference source for all entries: patent US10392383B2
